The following compounds are listed with their measured 590 nm absorbance normalized to zero hour (substrate use), 2 hr values.
Tested on: NHBE cells
Test: Biolog metabolic array: substrate use by NHBE cells with or without CA09 infection
Assay type: cell-based, human
Details: Virus: CA09-infected NHBE cells, MOI 1; Biolog PMM2; 2 hr

Answered examples (8):
compound: O=C(CO)[C@@H](O)[C@H](O)[C@H](O)COP(=O)(O)O [D-Fructose-6-Phosphate]
reported measurement: 0.75
//
compound: OC[C@H]1O[C@@H](O[C@H]2[C@H](O)[C@@H](O)[C@@H](O)O[C@@H]2CO)[C@H](O)[C@@H](O)[C@H]1O [a-D-Lactose]
reported measurement: 0.22
//
compound: OC[C@@H](O)[C@@H](O)[C@@H](O)CO [Adonitol]
reported measurement: 0.26
//
compound: CC(=O)CC(=O)O [Acetoacetic Acid]
reported measurement: 1.40
//
compound: OC[C@@H](O)[C@@H](O)CO [i-Erythritol]
reported measurement: 0.29
//
compound: O=C[C@H](O)[C@@H](O)[C@@H](O)CO [L-Arabinose]
reported measurement: 2.45
//
compound: COC(=O)C(C)=O [Methyl Pyruvate]
reported measurement: 2.20
//
compound: COC(=O)CCC(=O)O [Mono Methyl Succinate]
reported measurement: 1.71

Consider now this further compound.
Lookup: Return reported 590 nm absorbance normalized to zero hour (substrate use), 2 hr; argument: OC[C@H]1O[C@H](OC[C@H]2OC(O)(CO)[C@@H](O)[C@@H]2O)[C@H](O)[C@@H](O)[C@@H]1O (stereo partly drawn) [Palatinose]
Found: 0.24
